Provenance of the data: patent US20260217652A1

target: p38 MAPK/MK2 (Homo sapiens, UniProt Q16539); construct: Abcam (MK2) 04-152; 79910; experiment: In vitro activity assay of p38 MAPK/MK2 (Z-LYTE kinase assay kit); conditions: active p38α, inactive MK2, Ser/Thr 4; 1-hour reaction at 20° C.
Sequence (Q16539 whole entry): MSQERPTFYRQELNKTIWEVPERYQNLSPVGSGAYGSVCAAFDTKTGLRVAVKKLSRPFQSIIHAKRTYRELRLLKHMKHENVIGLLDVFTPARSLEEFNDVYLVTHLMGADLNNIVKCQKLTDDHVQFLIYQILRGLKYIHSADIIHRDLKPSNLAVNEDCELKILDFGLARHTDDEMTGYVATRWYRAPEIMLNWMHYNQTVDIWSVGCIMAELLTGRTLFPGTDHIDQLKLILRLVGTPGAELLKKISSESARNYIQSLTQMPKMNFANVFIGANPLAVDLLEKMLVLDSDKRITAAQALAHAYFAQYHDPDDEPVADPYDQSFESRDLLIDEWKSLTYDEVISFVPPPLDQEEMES
Sequence (P49137 whole entry partner): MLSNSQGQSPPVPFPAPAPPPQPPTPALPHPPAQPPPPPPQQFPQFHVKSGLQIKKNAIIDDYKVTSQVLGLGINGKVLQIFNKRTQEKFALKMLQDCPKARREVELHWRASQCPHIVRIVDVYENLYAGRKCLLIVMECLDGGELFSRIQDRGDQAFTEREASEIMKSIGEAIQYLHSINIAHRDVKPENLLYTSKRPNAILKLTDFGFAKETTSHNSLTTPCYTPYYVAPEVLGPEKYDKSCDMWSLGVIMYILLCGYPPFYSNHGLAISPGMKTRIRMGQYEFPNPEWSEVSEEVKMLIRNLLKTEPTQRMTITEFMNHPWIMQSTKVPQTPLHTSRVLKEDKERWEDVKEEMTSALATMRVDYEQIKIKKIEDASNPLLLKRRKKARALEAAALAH
Below, each of the molecules is paired with its reported pIC50 value.
In simple prose, pIC50 is minus the logarithm base ten of a concentration in moles per litre.

Recorded results for 5 molecules are shown here.
Cc1cnc(-c2cccc(C(C)(O)C(N)=O)c2F)cc1-n1c(C)cc(OCc2ncc(F)cc2F)c(Cl)c1=O (single isomer, unassigned) [Compound 126-P3]
9.55
Cc1cnc(-c2cccc([C@@](C)(O)CO)c2F)c(F)c1-n1c(C)cc(OCc2ncc(F)cc2F)c(Cl)c1=O [Compound 112-P1]
9.89
Cc1cnc(-c2cccc(C(N)=O)c2)c(F)c1-n1c(C)cc(OCc2ncc(F)cc2F)c(Cl)c1=O [Compound 30-P1]
9.80
Cc1cnc(-c2cccc(C3(O)CC3)c2)c(F)c1-n1c(C)cc(OCc2ncc(F)cc2F)c(Cl)c1=O [Compound 136]
7.58
Cc1cnc(-c2cccc(C(C)(C)O)c2F)cc1-n1c(C)cc(OCc2ncc(F)cc2F)c(Cl)c1=O [Compound 101]
9.03

Look up pIC50 of Cc1cc(OCc2ncc(F)cc2F)c(Cl)c(=O)n1-c1ccnc(-c2cccc(C3(CO)CC3)c2F)c1 [Compound 156] and report it. 9.47

Give reported pIC50 value for Cc1cnc(-c2cccc([C@](C)(O)CO)c2Cl)cc1-n1c(C)cc(OCc2ncc(F)cc2F)c(Cl)c1=O [Compound 37-1] 8.33

Using known records, supply pIC50 for Cc1cc(OCc2ncc(F)cc2F)c(Cl)c(=O)n1-c1ccnc(-c2cccc(C(C)(C)O)c2F)c1 [Compound 141] 9.10

Assign pIC50 to the following record: [2H]C([2H])(Oc1cc(C)n(-c2cc(-c3ccc(F)c([C@@](C)(O)CO)c3F)ncc2C)c(=O)c1Cl)c1ncc(F)cc1F [Compound 145-P1] 8.92

Please supply the value of reported pIC50 for the item Cc1cnc(-c2ccc(F)c([C@](C)(O)CO)c2)c(F)c1-n1c(C)cc(OCc2ncc(F)cc2F)c(Cl)c1=O [Compound 51-P2] 9.15

Supply reported pIC50 belonging to this molecule: [2H]C([2H])(Oc1cc(C)n(-c2cc(-c3cccc([C@@](C)(O)CO)c3F)ncc2C)c(=O)c1Cl)c1ncc(F)cc1F [Compound 146-P1] 8.85

Give pIC50 for the following molecule: Cc1cnc(-c2ccc(Cl)c([C@](C)(O)CO)c2)c(F)c1-n1c(C)cc(OCc2ncc(F)cc2F)c(Cl)c1=O [Compound 53-1] 8.92

Given the molecule Cc1cc(OCc2ncc(F)cc2F)c(Cl)c(=O)n1-c1ccnc(-c2cccc([C@@](C)(O)CO)c2F)c1 [Compound 143] , write its reported pIC50. 7.74

Give the measured pIC50 for Cc1cnc(-c2ccc(F)c([C@@](C)(O)CO)c2F)c(F)c1-n1c(C)cc(OCc2ncc(F)cc2F)c(Cl)c1=O [Compound 113-P1] 10.05

Find the measured pIC50 of Cc1cnc(-c2cccc(C(C)(C)CO)c2F)cc1-n1c(C)cc(OCc2ncc(F)cc2F)c(Cl)c1=O [Compound 137] and report it. 7.93

Give the reported pIC50 for this molecule. Cc1cnc(-c2cccc(C(C)(O)CO)c2F)cc1-n1c(C)cc(OCc2ncc(F)cc2F)c(Cl)c1=O (centres unmarked) [Compound 35] 8.62

Give the reported value of pIC50 for this record: COC[C@](C)(O)c1cccc(-c2cc(-n3c(C)cc(OCc4ncc(F)cc4F)c(Cl)c3=O)c(C)cn2)c1F [Compound 148-P1] 7.80
